Study target: OleTJE (CYP152L1) (Jeotgalicoccus sp. ATCC 8456, UniProt E9NSU2, F79Y)
Construct: gene JEM45_03820; full length, codon-optimized gene in modified pET15b, N-terminal polyhistidine tag with TEV site; tag kept for spectroscopy, cleaved for crystallography; expressed in E. coli C41 (DE3)
Method notes: UV-visible heme spectral titration
Format: binding
Condition parameters: read-out: Fatty acid Kd (HS) / C20:0

{"Structure smiles": "CCCCCCCCCCCCCCCCCCCC(=O)O", "Study target": "OleTJE (CYP152L1) (Jeotgalicoccus sp. ATCC 8456, UniProt E9NSU2, F79Y)", "Kd (µM)": 4.25}

The measured values listed here are drawn from paper PMC5377825.
